Molecular target: human Cereblon WT GST-tagged protein (Homo sapiens)
Construct: purchased CISBIO 64BDCRBNPEH
Experiment: CRBN-binding affinity, HTRF (CEREBLON BINDING kit)
Conditions: read-out: Inhibition Rate at 0.5 µM (%)
propertyMeasured: inhibition at 0.5 µM

Name the recorded inhibition at 0.5 µM for COc1cc(N2CCC(N3CCN(Cc4cccc5c4CN(C4CCC(=O)NC4=O)C5=S)CC3)CC2)c(C)cc1Nc1ncc(Br)c(Nc2ccc3nccnc3c2P(C)(C)=O)n1 (stereo not drawn) [GT-05058] .
40 to 53%

Now give it for Nc1ncnc2c1c(-c1ccc(Oc3ccccc3)cc1)nn2C1CCN(Cc2ccc3c(c2)CN(C2CCC(=O)NC2=O)C3=S)CC1 (stereo not drawn) [GT-09436] too.
40 to 53%

Now consider O=C1CCC(N2Cc3cc(CN4CCN(c5ccc(CC(=O)Nc6cc(C7CCC7)[nH]n6)cc5)CC4)ccc3C2=S)C(=O)N1 (stereo not drawn) [GT-08684] .
60 to 80%

----------
Would you mind telling me the reported inhibition at 0.5 µM of each entry?
Test system: RPMI-8226
Assay: Tumor cell proliferation inhibition (CellTiter-Meiluncell Luminescent Cell Viability Assay)
Type: cell-based
Details: Homo sapiens, 500 nM, 96 hours, Table I-10, BCR-ABL inhibitors, read-out: Inhibition Rate at 500 nM (%)

inhibition at 0.5 µM lookup needed for Cc1ccc(C(=O)Nc2ccc(CN3CCN(Cc4cccc5c4CN(C4CCC(=O)NC4=O)C5=S)CC3)c(C(F)(F)F)c2)cc1C#Cc1cnc2cccnn12 (stereo not shown) , thanks.
60 to 70%

# iterate: Cc1ccc(C(=O)Nc2ccc(CN3CCN(Cc4ccc5c(c4)CN(C4CCC(=O)NC4=O)C5=S)CC3)c(C(F)(F)F)c2)cc1C#Cc1cnc2cccnn12 (stereo not shown)
80 to 100%

Queued: Cc1ccc(NC(=O)c2ccc(CN3CCN(C)CC3)cc2)cc1Nc1nccc(-c2cccnc2)n1
10 to 20%

Please answer likewise for O=C1CCC(N2Cc3cc(CN4CCN(C5CCN(c6ncc(C(=O)Nc7ccc(OC(F)(F)Cl)cc7)cc6-c6cc[nH]n6)CC5)CC4)ccc3C2=S)C(=O)N1 (stereo not shown)
40 to 50%

----------
System: MM.1S
Assay: Tumor cell proliferation inhibition (CellTiter-Meiluncell Luminescent Cell Viability Assay)
Assay type: cell-based
Conditions: Homo sapiens, MM1.S, 96 h, read-out: Inhibition Rate at 500 nM (%)
propertyMeasured: inhibition at 0.5 µM

Bench note: what inhibition at 0.5 µM did CC(C)CCN1c2nc(Nc3cc(F)c(O)c(F)c3)ncc2N(C)C(=O)C1C (stereo not shown) [BI-D1870, reference compound] show?
20 to 30%

Request: Nc1cccc2c1CN(C1CCC(=O)NC1=O)C2=O (stereo not shown) [Lenalidomide, lenalidomide, reference compound]
30 to 35%

Again, but for CC[C@@H]1[C@H](F)C(=O)N[C@@H]1COc1nccc2cc(C(N)=O)c(OC)cc12 [PF06650833, PF-06650833, reference compound]
0 to 5%

Now give it for Nc1nnc(-c2ccccc2O)cc1N1CCNCC1 [GTC00645] too.
15 to 20%

----------
Biological target: human Cereblon WT GST-tagged protein (Homo sapiens)
Construct: purchased CISBIO 64BDCRBNPEH
Experiment: CRBN-binding affinity, HTRF (CEREBLON BINDING kit)
Conditions: read-out: Inhibition Rate at 0.5 µM (%)
From the text: The CEREBLON BINDING kits (specification: 10,000 tests; product number: Catalog # 64BDCRBNPEH; CISBIO company) was used to determine the CRBN binding ability of the compounds to be tested through a HTRF method (homogeneous time-resolved fluorescence). The specific methods are as follows: • 1. […] Specifically, diluent #9 (1X) solution was used as the diluent, and multiple concentration gradients were set. […]
propertyMeasured: inhibition at 0.5 µM

Need inhibition at 0.5 µM of COc1cc2nn(C3CCN(Cc4ccc5c(c4)CN(C4CCC(=O)NC4=O)C5=S)CC3)cc2cc1NC(=O)c1cccc(C(F)(F)F)c1 (stereo not drawn) , thanks.
60 to 80%

And what about the molecule CC(C)(O)c1cc2nc(C3CCN(Cc4ccc5c(c4)CN(C4CCC(=O)NC4=O)C5=S)CC3)sc2cc1NC(=O)c1cccc(C(F)(F)F)n1 (stereo not drawn) ?
80 to 100%

Proceed to Nc1nnc(-c2cc(F)ccc2O)cc1N1CC2CCC(C1)N2Cc1cccc2c1CN(C1CCC(=O)NC1=O)C2=S (stereo not drawn)
60 to 80%

Queued: COc1cc(N2CCN(Cc3cccc4c3CN(C3CCC(=O)NC3=O)C4=S)CC2)ccc1Nc1ncc(Cl)c(Nc2ccccc2P(C)(C)=O)n1 (stereo not drawn)
53 to 60%

Okay, and Cc1ccsc1C(=O)n1nc(Nc2ccc(S(=O)(=O)N3CCN(Cc4ccc5c(c4)CN(C4CCC(=O)NC4=O)C5=S)CC3)cc2)nc1N (stereo not drawn) ?
60 to 80%

// repeat for COC1CCN(c2nccc(Nc3cc4c(cn3)c(N3CCN(Cc5ccc6c(c5)CN(C5CCC(=O)NC5=O)C6=S)CC3)nn4C(C)C)n2)CC1 (stereo not drawn) and report
30 to 40%

What about this molecule? O=C1CCC(N2Cc3c(CN4CCN(c5ncc(C(=O)Nc6ccc(OC(F)(F)Cl)cc6)cc5-c5cc[nH]n5)CC4)cccc3C2=S)C(=O)N1 (stereo not drawn)
30 to 40%

Okay, and CCCc1cc(C)[nH]c(=O)c1CNC(=O)c1cc(-c2ccc(N3CCN(Cc4ccc5c(c4)CN(C4CCC(=O)NC4=O)C5=S)CC3)nc2)cc2c1cnn2C(C)C (stereo not drawn) ?
40 to 53%

Now give it for O=C1CCC(N2Cc3c(CN4CCC(n5cc(NC(=O)c6cnn7ccc(N8CCOCC8)nc67)c(C(F)F)n5)CC4)cccc3C2=S)C(=O)N1 (stereo not drawn) too.
53 to 60%

Now give it for COc1cc(N2CCC(N(C)Cc3ccc4c(c3)CN(C3CCC(=O)NC3=O)C4=S)CC2)c(C)cc1Nc1ncc(Br)c(Nc2ccc3nccnc3c2P(C)(C)=O)n1 (stereo not drawn) too.
80 to 100%

Lookup COc1cc(N2CCC(N3CCN(C)CC3)CC2)ccc1Nc1ncc(Cl)c(Nc2ccccc2P(C)(C)=O)n1 [Brigatinib, reference compound]
0 to 10%

Next molecule up: COc1cc(N2CCN(Cc3ccc4c(c3)C(=S)N(C3CCC(=O)NC3=O)C4)CC2)ccc1Nc1ncc(Cl)c(Nc2ccccc2P(C)(C)=O)n1 (stereo not drawn)
60 to 80%

----------
I'd appreciate it if you could supply inhibition at 0.5 µM values for the items below.
System: SW620
Assay: Tumor cell proliferation inhibition (CellTiter-Meiluncell Luminescent Cell Viability Assay)
Format: cell-based
Conditions: Homo sapiens, SW-620, 500 nM, 96 hours, Table I-6, IRAK4 inhibitors, read-out: Inhibition Rate at 500 nM (%)

Form field: inhibition at 0.5 µM recorded for O=C1CCC(N2Cc3cc(CN4CCC(n5cc(NC(=O)c6coc(-c7ccnc(NCC8CC8)c7)n6)c(C(F)F)n5)CC4)ccc3C2=S)C(=O)N1 (centres unmarked) with SW620 (enter value)
70 to 80%

For CC[C@@H]1[C@H](F)C(=O)N[C@@H]1COc1nccc2cc(C(N)=O)c(OC)cc12 [PF06650833, PF-06650833, reference compound] then?
10 to 20%

Now try O=C1CCC(N2Cc3cc(CN4CCC(n5cc(NC(=O)c6cnn7ccc(N8C[C@H]9C[C@@H]8CO9)nc67)c(C(F)F)n5)CC4)ccc3C2=S)C(=O)N1 (some centres unmarked) .
70 to 80%

Similarly, O=C1CCC(N2Cc3cc(CN4CCC(n5cc(NC(=O)c6cnn7ccc(N8CCOCC8)nc67)c(C(F)F)n5)CC4)ccc3C2=S)C(=O)N1 (centres unmarked) ?
40 to 50%

Now this one: O=C1CCC(N2Cc3cc(CN4CCC(n5cc(NC(=O)c6coc(-c7ccnc(NCC(F)(F)F)c7)n6)c(C(F)F)n5)CC4)ccc3C2=S)C(=O)N1 (centres unmarked)
80 to 100%

----------
Molecular target: human Cereblon WT GST-tagged protein (Homo sapiens, UniProt Q96SW2)
Construct: purchased CISBIO 64BDCRBNPEH
Sequence (Q96SW2 whole entry): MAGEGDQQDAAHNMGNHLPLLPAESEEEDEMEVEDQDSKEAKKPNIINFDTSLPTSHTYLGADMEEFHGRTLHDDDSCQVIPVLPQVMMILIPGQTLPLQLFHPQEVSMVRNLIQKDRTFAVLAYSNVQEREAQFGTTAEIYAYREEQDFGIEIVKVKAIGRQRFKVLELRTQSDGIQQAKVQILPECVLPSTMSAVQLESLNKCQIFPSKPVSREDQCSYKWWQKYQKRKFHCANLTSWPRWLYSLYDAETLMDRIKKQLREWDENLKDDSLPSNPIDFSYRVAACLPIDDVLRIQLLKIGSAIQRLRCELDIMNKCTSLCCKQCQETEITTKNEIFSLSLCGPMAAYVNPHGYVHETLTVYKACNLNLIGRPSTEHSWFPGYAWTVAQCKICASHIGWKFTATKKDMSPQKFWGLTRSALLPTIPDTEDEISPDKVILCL
Assay: CRBN-binding affinity, HTRF (CEREBLON BINDING kit)
Details: read-out: Inhibition Rate at 0.5 µM (%)
propertyMeasured: inhibition at 0.5 µM

Give the measured inhibition at 0.5 µM of Nc1nc(Nc2ccc(S(=O)(=O)N3CCN(Cc4cccc5c4CN(C4CCC(=O)NC4=O)C5=S)CC3)cc2)nn1C(=O)c1c(F)cccc1F (stereo not drawn) .
53 to 60%

Continue with O=C1CCC(N2Cc3cc(CN4CCN(c5ccc(-c6cc(F)c7c(c6)C(=O)N(C(C(=O)Nc6nccs6)c6ncn8c6CCC8)C7)cc5)CC4)ccc3C2=S)C(=O)N1 (stereo not drawn)
53 to 60%

Follow-up entry: Cn1ncc(Cl)c1-c1cc(C(=O)N[C@H](CNCc2ccc3c(c2)CN(C2CCC(=O)NC2=O)C3=S)Cc2ccc(F)c(F)c2)oc1Cl (stereo partly drawn)
30 to 40%

Again, but for Cc1cc(Nc2ncc(Cl)c(Nc3ccccc3S(=O)(=O)C(C)C)n2)c(OC(C)C)cc1C1CCN(Cc2ccc3c(c2)C(=S)N(C2CCC(=O)NC2=O)C3)CC1 (stereo not drawn)
40 to 53%

Record: Nc1nc(Nc2ccc(S(=O)(=O)N3CCN(Cc4ccc5c(c4)C(=S)N(C4CCC(=O)NC4=O)C5)CC3)cc2)nn1C(=O)c1c(F)cccc1F (stereo not drawn)
80 to 100%

Another compound to check: N#CC1(CNc2nc(-c3cc(NC4CCN(Cc5cccc6c5CN(C5CCC(=O)NC5=O)C6=S)CC4)ncc3Cl)cs2)CCOCC1 (stereo not drawn)
53 to 60%
